Listed compounds paired with reported melting point
Structures can show the parent of a compound that is named as a salt.
quantity_kind: melting point

INSERT INTO assay_data (compound, quantity_kind, experimental_value) VALUES
  ('O=S(=O)(NCCCN1CCOCC1)c1ccc2c(c1)CNCC2 (as salt: hydrochloride) [compound 19]', 'melting point', '238 to 245 °C'),
  ('CCN(CC)CCCNS(=O)(=O)c1ccc2c(c1)CN(CC1CCCCC1)CC2 (as salt: oxalate) [compound 7]', 'melting point', '144 to 147 °C'),
  ('CC1CCCCN1CCCNS(=O)(=O)c1ccc2c(c1)CNCC2 (racemic) (as salt: hydrochloride)', 'melting point', '65 to 70 °C'),
  ('CN1CCCC1CCNS(=O)(=O)c1ccc2c(c1)CN(Cc1ccc3c(c1)OCO3)CC2 (racemic) (as salt: oxalate) [compound 25]', 'melting point', '106 to 109 °C'),
  ('CN(C)CCCNS(=O)(=O)c1ccc2c(c1)CNCC2 (as salt: hydrochloride)', 'melting point', '230 to 234 °C'),
  ('CCC(C)CN1CCc2ccc(S(=O)(=O)NCCC3CCCN3C)cc2C1 (racemic) (as salt: oxalate) [compound 32]', 'melting point', '66 to 77 °C'),
  ('CCN(CC)CCCNS(=O)(=O)c1ccc2c(c1)CN(Cc1cccs1)CC2 (as salt: oxalate) [compound 11]', 'melting point', '109 to 115 °C'),
  ('CCN(CC)CCCNS(=O)(=O)c1ccc2c(c1)CN(Cc1ccccc1)CC2 (as salt: oxalate) [compound 5]', 'melting point', '91 to 95 °C'),
  ('O=S(=O)(NCCCN1CC=CCC1)c1ccc2c(c1)CNCC2 (as salt: hydrochloride) [compound 9]', 'melting point', '> 250 °C'),
  ('CN1CCCC1CCNS(=O)(=O)c1ccc2c(c1)CN(Cc1ccccc1)CC2 (racemic) (as salt: oxalate) [compound 23]', 'melting point', '77 to 82 °C'),
  ('CC(C)c1ccc(CN2CCc3ccc(S(=O)(=O)NCCC4CCCN4C)cc3C2)cc1 (racemic) (as salt: oxalate) [compound 24]', 'melting point', '103 to 110 °C'),
  ('O=S(=O)(NCCCN1CCCC1)c1ccc2c(c1)CN(CC1CCCCC1)CC2 (as salt: oxalate) [compound 21]', 'melting point', '130 to 141 °C'),
  ('CCN(CC)CCCNS(=O)(=O)c1ccc2c(c1)CN(CC1CC1)CC2 (as salt: oxalate) [compound 6]', 'melting point', '98 to 103 °C'),
  ('CCN(CC)CCCNS(=O)(=O)c1ccc2c(c1)CN(Cc1ccsc1)CC2 (as salt: oxalate) [compound 12]', 'melting point', '89 to 95 °C'),
  ('Cc1cc(C)cc(CN2CCc3ccc(S(=O)(=O)NCCC4CCCN4C)cc3C2)c1 (racemic) (as salt: oxalate) [compound 34]', 'melting point', '121 to 125 °C');

====

Listed compounds paired with reported melting point
Counter-ions that a name gives are not always drawn.
quantity_kind: melting point

INSERT INTO measurements (compound, quantity_kind, experimental_value) VALUES
  ('O=S(=O)(NCCCN1CC=CC1)c1ccc2c(c1)CNCC2 (as salt: hydrochloride) [compound 13]', 'melting point', '228 to 231 °C'),
  ('CN1CCCC1CCNS(=O)(=O)c1ccc2c(c1)CN(CC1CC1)CC2 (racemic) (as salt: oxalate) [compound 22]', 'melting point', '50 to 60 °C'),
  ('CN1CCc2ccc(S(=O)(=O)NCCCN3CC=CC3)cc2C1 (as salt: oxalate) [compound 16]', 'melting point', '99 to 104 °C');
